Test system: Liver
experiment: Unbound intrinsic clearance in mouse liver microsomes at 0.5 uM in presence of NADPH incubated for 5 to 30 mins by HPLC-MS/MS method
Type: ADME, microsome
Each entry below carries its recorded CL free.
Could you give me the number in mL/min/kg? Just the number is fine.

{"columns": ["compoundString", "unitsSymbol", "CL free"],
 "data": [
  ["CC(C)CCNS(=O)(=O)c1ccc(NC(=O)N2Cc3ccccc3C2)cc1", "mL/min/kg", 4420],
  ["CCCNC(=O)c1ccc(NC(=O)N2Cc3ccccc3C2)cc1", "mL/min/kg", 71.7],
  ["CC(C)CCC(=O)Nc1ccc(NC(=O)N2Cc3ccccc3C2)cc1", "mL/min/kg", 783],
  ["O=C(Nc1ccc(C2CCN(C(=O)[C@@H]3CCCO3)CC2)cc1)N1Cc2ccc(Cl)cc2C1", "mL/min/kg", 583],
  ["O=C(Nc1ccc(C2CCN(C(=O)c3ccccc3)CC2)cc1)N1Cc2ccccc2C1", "mL/min/kg", 983],
  ["CC1(C(=O)N2CCC(c3ccc(NC(=O)N4Cc5ccccc5C4)cc3)CC2)CC1", "mL/min/kg", 283],
  ["CC(C)(C)CCNC(=O)c1ccc(NC(=O)N2Cc3ccccc3C2)cc1", "mL/min/kg", 145],
  ["CC(C)CCNC(=O)c1ccc(NC(=O)N2Cc3ccccc3C2)nc1", "mL/min/kg", 283],
  ["O=C(Nc1ccc(C2CN(C(=O)c3ccccc3)C2)cc1)N1Cc2ccc(F)cc2C1", "mL/min/kg", 433]
]}

Prompt: Using the record for `CC(C)C[C@@H](CO)NC(=O)c1ccc(NC(=O)N2Cc3ccccc3C2)cc1` , report its CL free.
Response: 115
